Test: yeast display, Sf9 membrane polyspecificity reagent, FACS + sequencing; frameworks hold sequencing errors
measurementLabel: polyreactivity (PSR sort gate)

INSERT INTO measurements (residuecodes, reading) VALUES
  ('QVQLVESGAGLVQAGGSLRLICAASGRIFDRYTMGRYRQAPGKERELVAAITQRGTSTYYADSVKGRFTLSRDTAKNTVYLQMNSLKPEDTAGYYCAATALFSGLNKRYYWGQGTQLTVSS', 'high polyreactivity'),
  ('QVQLVESGGGLVQAGGRLRLSCAASGRIFGSYAMGWYRQAPGKERELVAAITFSGVNTYYADSVKGRFTISRDNAKNTVYLQMNRLKPEDTAVYYCAVRGPEAEYDYWGQGTQVTVSS', 'high polyreactivity'),
  ('QVQLVESGGGLVQAGGSLRLSCAASGFTFVSNDMGWYRQAPGKERELVAVITTGDTSTSYADSVKGRFTISRDNAKNTVYLQMNSLKPEDTAVYYCAADPHDTVRHDALVELEYWGQGTQVTVSS', 'low polyreactivity'),
  ('QVQLVESGGGLVQAGGSLRLSCAASGITFRSYAMGWYRQAPGKERELVAAISSTGRTYYADSVKGRFTISRDNAKNTVYLQMNSLKPEDTAGYYCNAKRYIWGQGTQVTVSS', 'high polyreactivity'),
  ('QVQLEESGGGLVQAGGSLRLSCAASGSTFTRYAMGWYRQAPGKERELVAAISRGGSTNYADSVKGRFTISRDNAKNTVYLQMNSLKPEDTAVYYCAARSWYLRYDYWGQGTQVTVSS', 'high polyreactivity');

[ask] Report polyreactivity (PSR sort gate) for QVQLVESGGGLVQAGGSLRLSCPASGSISYFNAMGGYRQAPGKERELVAAITSCGSTYYADSVKGRFTISRDNAKNSVYLQMNSLKPEDTAVYYCAADDSWFYYGYGYWGQGTQVTVSS please.
[reply] low polyreactivity

[ask] Report polyreactivity (PSR sort gate) for QVQLVESGGGLVQAGGSLRLSCAASGSIFRNYAMGWYRKAPGKERELVADSTYYADSVKGRFTISRDNAKNTVYLQMNSLKPEDTAVYYCNTVYATRYDYWGQGTQVTVSS please.
[reply] high polyreactivity

[ask] Report polyreactivity (PSR sort gate) for QVQLVESGGGLVQAGGSLRLSCAASGSTFYRYAMGWYRQAPGKERELVAAITRGGGNTYYADSVKGRFTISRDNAKNTVYLQMNSLKPEDTAVYYCNTDPTLRSRVGIWGFDYWGQGTQVTVSS please.
[reply] high polyreactivity

[ask] Report polyreactivity (PSR sort gate) for QVQLVESGGALVQAGGSIRLSCAASGSTFAYYAMGWYRQATGKERELVAAINWRTYYADSVKGRFTISRDNAKNTVYLQMNSLKPEDSAVYYCAAGYYRNKFYYWGQGTQVTVSS please.
[reply] high polyreactivity

[ask] Report polyreactivity (PSR sort gate) for QVHLVESGGGLVQAGGSLRLSCAASGFTLYGNVMGWYRPAPGKERELVAAISWSTDSTYYADSLKGRFTISRDNAKNTVYLQMNSLKPEDTAIYYCAADYSHLPIAWYYYWGQGTQVTVSS please.
[reply] low polyreactivity

[ask] Report polyreactivity (PSR sort gate) for QVQLVESGGGLVQAGGSLRLSCAASGSTFDTYAMGGYRQAPGKERELVAAISYPGGNTYYADSVKGRFTISRDNAKNTVYLQMNRLKPEDTAVYYCNADVVDGGLAYDYWGQGTQVTVSS please.
[reply] low polyreactivity

###

Test: yeast display, Sf9 membrane polyspecificity reagent, FACS + sequencing; frameworks hold sequencing errors
measurementLabel: polyreactivity (PSR sort gate)

INSERT INTO measurements (residuecodes, reading) VALUES
  ('QVQLVESGGGLVQAGGRLRLSCAASGRTFTPNAMGWYRQAPGKERELVAAIDWRGGRTYYADSVKGRFTISRDNAKNTVYLQMNSLKPEDTAVYYCAARVDGYHYKSAGYSYGVYYWGQGTQVTVSS', 'low polyreactivity'),
  ('QVQLVESGGGSVQAGGSLRLICAASGSTFSDYDMGWYRQAPGKERELVAAISIGGRTNYADSVKGRFTISRDNAKNTVYLQMNSLKPEDTAVYDCAADSQSIYAYWPGGGYGYWGQGTQVTLSS', 'low polyreactivity'),
  ('QVQLVESGGGLVQAGGSLRLSWAASGSTFNSYAMGCYRQAPWKERELVAAITWSGGSTFYADSVKGRVTISRDNAKNTVYLQMNSLKPEDTSVYYCNADGPYYPPYPSTYVDGDSWGQGTQVTVSS', 'low polyreactivity');

###

Experiment: yeast display, Sf9 membrane polyspecificity reagent, FACS + sequencing; frameworks hold sequencing errors
measurementLabel: polyreactivity (PSR sort gate)

INSERT INTO assay_data (residuecodes, measurementlabel, reading) VALUES
  ('HVQLVESGGGLVQAGGSLRLSCAASGYTFWDYAMGWYRQAPGKEREFVAGISFSDGGTYYADSVKGRFTISRDNAKNTVYLQMNSLKPEDTAVYYCAATYPYSWVYSGYYYWGQGTQVTVSS', 'polyreactivity (PSR sort gate)', 'low polyreactivity'),
  ('QVQLVESGGGLVQAGGSLRLSCAASGSIFAGNAMGWYRQAPGKERELVAGITFGDDSTYYADSVKGRFTISRDNAKNTVYLQMNSLKPEDTAVYYCATDLHPYNYYFYHYWVDAAYDYWGQGTQVTVSS', 'polyreactivity (PSR sort gate)', 'low polyreactivity'),
  ('QVQLVESGGGLVQAGGSLRLSCAASGSTFVVYAMGWYRQAPGKERELVAAIDLSVGDTYYADSVKGRFTISRDNAKNTVYLQMNSLKPEDTAVYYCNVAVYYWRWIYGYWGQGTQVTVSS', 'polyreactivity (PSR sort gate)', 'low polyreactivity');

###

Experiment: yeast display, Sf9 membrane polyspecificity reagent, FACS + sequencing; frameworks hold sequencing errors
measurementLabel: polyreactivity (PSR sort gate)

Reference set (5 entries):
INSERT INTO results (residuecodes, measurementlabel, reading) VALUES
  ('QVQLVESGGGLVQAGGSLRLSCAASGRTINRYDMGWYRQAPGKERELVAAISTSGGTTYYADSVKGRFTISRDNAKNTVYLQMNSLKPEDTAVYYCNARALAYWGQGTKVTVSS', 'polyreactivity (PSR sort gate)', 'high polyreactivity'),
  ('QVHLVESGGGLVQAGGSLRLSCAASGFTFGPYAMGWYRQAPGKERELVAGITWSGASTYYADSVKGRFTISRDNAKNTVYLQMNSLKPEDTAVYYCARYYRLGSRYDYWGQGTQVTLSS', 'polyreactivity (PSR sort gate)', 'low polyreactivity'),
  ('QVQLVESGGGLVQAGGSLRLSCAASGSIFKYNDMGWYRQAPGKEREWVAAIRLGGGSTSYADSVKGRFTISRDNAKNTVYLQMNSLKPEDTAVYYCNAYAVYLRYLWYDYWGQGTQVTVSS', 'polyreactivity (PSR sort gate)', 'low polyreactivity'),
  ('QVHLVESGGGLVQAGGSLRLSCAASGIISGGNAMGWYRQAPGKDRELVASINSGGSTNYADSVKGRFTISRDNALNSLYLKMNSLKPDDTAVYYGAGDYIDSTAYDYWGQGTKVTVSS', 'polyreactivity (PSR sort gate)', 'low polyreactivity'),
  ('QVQLVESGGGLVQAGGSLRLSCAASGFTFNYYVMGWYRQAPGKEREMVSAISRGGGSTYYADSVKGRFTISRDNAKNTVYLQMNSLKPEDTEVYYCAARPYSYLFFYWGQGTQVTVSS', 'polyreactivity (PSR sort gate)', 'high polyreactivity');

Now look at this one.
[ask] Report polyreactivity (PSR sort gate) for QVQLVESGGGLVQAGGSLRLSCAAYGRIFSRNAMGWYRQAPGKERELVAAITSSGGSTYYADSVKGRFTISRDNAKNTVYLQMNSLKPEDTAVYYCNAVSRWWPAGFDYWGQGTQVTVSS please.
[reply] high polyreactivity

###

Test: yeast display, Sf9 membrane polyspecificity reagent, FACS + sequencing; frameworks hold sequencing errors
measurementLabel: polyreactivity (PSR sort gate)

INSERT INTO assay_data (residuecodes, reading) VALUES
  ('QVQLVQSFGGLVQAGGSLRLSCAASGRIFWPYAMGWYRQPPGKERELVAAITGSGSRTYYADSVKGRFTISRDYAKNTVYLHMNSLNREDTAVYYCAATSSTDYDYWGQGTQVTVSS', 'low polyreactivity'),
  ('QVQLVESVGGLVQAGGSLRLSCAASGSTFAFYDMGWYRQAPGKERELVAAISQSDGDTYYADSVKGRFTISRDNAKNTVYLQMNSLKPEDTAVYYCAAETAHTPEYERGSDYWGQGTQVTVSS', 'low polyreactivity'),
  ('QVQLVESGGGLVQAGGSLRLSCAASGSTFVRNGMGWYRQAPGKERELVASISGRGGSTYYADSVKGRFTISRDNAKNTVYLQMNSLKPEDTAVYYCAVRYGFYSRYNYWGQGTQVTVSS', 'high polyreactivity'),
  ('QVQLVESGGGLVQAGGSLRLSCAASGFIFFRYAMGWYRQAPGKERELVATITSSGRTNYADSVKGRFTISRDNAKNTVYLQMNSLKPEDTAVYYCAAQRTGARRYRYDSWGQGTQVTVSS', 'high polyreactivity'),
  ('QVQIVESGRGLVQAGGSLRLSCAPSGRIFIYNAMGWYIQAPGKERELVAAISWRGGRTYYADSVKGRFTISRDNAKNTVYLQMNRLKPEDTAVYYCNAEPYGYERLYDYWGQGTQVNVSS', 'high polyreactivity'),
  ('QVQLVESGGGLVQAGASLRLSCAASGSTFKYYTMGWYRQAPGKERELVAAISFSGARTYYADSVKGRFTISRDNAKNTVYLQMNSLKPEDTAVYYCAKDRQYYYWGQGTQVTVSS', 'high polyreactivity');

[ask] Report polyreactivity (PSR sort gate) for QVQLVESGGGLVQAGGSLRLSCAASGSIFSINTMGWYRQAPGKERELVATITWSVGSTNYADSVKGRFTISRDNAKNTVYLQMNSLKPEDTAVYYCNADSSRWPYRLYRFYYWGQGTQVTVSS please.
[reply] low polyreactivity

[ask] Report polyreactivity (PSR sort gate) for QVQLQESAGGLVQAGGSLRMSCAASGTIFSEANMGWYRQAPGKERELVATIGQGSTTNYADSVKGRFTISRDNAKNTVYLQMNSLKPEETAVYYCAVVTVDPVGFVYWGQGTQVTVSS please.
[reply] low polyreactivity

[ask] Report polyreactivity (PSR sort gate) for QVQLVESGGGLVQAGGSLRLSCAGSGFTFQYYAMGWYRQAPGKERELVAAMSWGGGSTYYADSVKGRFTISRDNAKKTVYLQMNSLKPEDTAVYYCNAYDYLSAGDDYWGQGTQVTVSS please.
[reply] low polyreactivity

[ask] Report polyreactivity (PSR sort gate) for QVQLVESGGGLVQAGASLRLSCAASGRTFGGYAMGWYRQAPGKERQLVAAISSSGTGTSYADSVKGRFTISRDNAKNTVYFEMNSLKPEDTAVYYCAARSSRTVLSIQDDDYWGQGTQVTVSS please.
[reply] low polyreactivity

[ask] Report polyreactivity (PSR sort gate) for QVQLVESGGGLVQAGGSLRLSCAASGRIFSRNTMGWYRQAPGKERELVATISWSGSRTYYADSVKGRFTISRDNAKNTVYLQMNSLKPEDTAVYYCAARLWPSYLSYGKTGDYWGQGTQVTVSS please.
[reply] high polyreactivity
